# K values compiled below
# Organism: Rattus norvegicus
# test summary: Open TG-GATES - Regimen: Daily Repeat
# Type: toxicity, organism-based, Sprague-Dawley
# Parameters: regimen Daily Repeat, gender Male, age 6 weeks
# conditions: in vivo, po, 0 mg/kg, 72 h, tissue Plasma, route gavage, dose level Control, time 3 day
Your answer is read as meq/L, so omit the unit and give the number.

Recorded K, per entry:
CO[C@H]1/C=C/O[C@@]2(C)Oc3c(C)c(O)c4c(O)c(c(/C=N/N5CCN(C)CC5)c(O)c4c3C2=O)NC(=O)/C(C)=C\C=C\[C@H](C)[C@H](O)[C@@H](C)[C@@H](O)[C@@H](C)[C@H](OC(C)=O)[C@@H]1C
5
COc1ccc2c(c1)c(CC(=O)O)c(C)n2C(=O)c1ccc(Cl)cc1
4.8
Cn1c(=O)c2[nH]cnc2n(C)c1=O.O
4.3

K measured on O=C(O)c1cn(C2CC2)c2cc(N3CCNCC3)c(F)cc2c1=O = 5.1
